Values from paper PMC9735679

- target.desc: natural TetR (Escherichia coli, UniProt P04483)
- Construct: made in house
- Sequence (P04483 whole entry): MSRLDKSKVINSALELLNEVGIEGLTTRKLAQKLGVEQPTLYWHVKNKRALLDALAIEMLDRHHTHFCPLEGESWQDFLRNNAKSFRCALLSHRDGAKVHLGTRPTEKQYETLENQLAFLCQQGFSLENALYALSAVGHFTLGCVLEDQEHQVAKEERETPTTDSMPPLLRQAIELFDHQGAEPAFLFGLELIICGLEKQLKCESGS
- experimental.details: Surface plasmon resonance affinity, natural TetR
- Assay type: binding
- condition.notes: TetR+Mg2+, SPR
readout.kind: koff (dissociation rate constant) (s⁻¹)
Answers are plain numbers, in s⁻¹.

Here is how some compounds turned out for koff (dissociation rate constant).
Quick check: koff (dissociation rate constant) of CN(C)c1cc(NC(=O)CNC(C)(C)C)c(O)c2c1C[C@H]1C[C@H]3[C@H](N(C)C)C(O)=C(C(N)=O)C(=O)[C@@]3(O)C(O)=C1C2=O [TIC, tigecycline] ?
1.78e-05

Quick check: koff (dissociation rate constant) of CN(C)[C@@H]1C(O)=C(C(=O)NCNCCCC[C@H](N)C(=O)O)C(=O)[C@@]2(O)C(O)=C3C(=O)c4c(O)cccc4[C@@](C)(O)[C@H]3C[C@@H]12 [LMC, Lymecycline] ?
0.00121

Quick check: koff (dissociation rate constant) of CN(C)[C@@H]1C(O)=C(C(N)=O)C(=O)[C@@]2(O)C(O)=C3C(=O)c4c(O)ccc(Cl)c4[C@@](C)(O)[C@H]3C[C@@H]12 [CTC, chlortetracycline] ?
0.0113

Proceed to the following item.
Quick check: koff (dissociation rate constant) of CN(C)[C@@H]1C(O)=C(C(N)=O)C(=O)[C@@]2(O)C(O)=C3C(=O)c4c(O)cccc4[C@@](C)(O)[C@H]3[C@H](O)[C@@H]12 [OTC, oxytetracycline] ?
0.00144
